- system.tested: human full-length recombinant HPK1 (Homo sapiens (Human))
- protocol: HPK1 biochemical enzyme assay, microfluidic mobility shift assay (MSA)
- cond: mobility shift assay; 75 μM ATP; Morrison equation, tight-binding competitive inhibition; read-out: HPK1 Enzyme Assay_Ki
pKi: −log10 of the molar value.
measured.metric: pKi

>>> obs_value("C[C@H]1COC(=O)N1c1cccc(N2Cc3c(cc(N(C)C)nc3CN)C2=O)n1")
9.47
>>> obs_value("CNCc1nc(N2[C@H]3CC[C@@H]2CC3)cc2c1CN(c1cccc(-c3nncn3C(C)C)n1)C2=O")
9.00
>>> obs_value("CNCc1nc(C)cc2c1CN(c1cccc(-c3nncn3C(C)C)n1)C2=O")
8.15

---

Entries and their pKi
- system.tested: human full-length recombinant HPK1 (Homo sapiens (Human), UniProt Q92918)
- Sequence (Q92918 whole entry): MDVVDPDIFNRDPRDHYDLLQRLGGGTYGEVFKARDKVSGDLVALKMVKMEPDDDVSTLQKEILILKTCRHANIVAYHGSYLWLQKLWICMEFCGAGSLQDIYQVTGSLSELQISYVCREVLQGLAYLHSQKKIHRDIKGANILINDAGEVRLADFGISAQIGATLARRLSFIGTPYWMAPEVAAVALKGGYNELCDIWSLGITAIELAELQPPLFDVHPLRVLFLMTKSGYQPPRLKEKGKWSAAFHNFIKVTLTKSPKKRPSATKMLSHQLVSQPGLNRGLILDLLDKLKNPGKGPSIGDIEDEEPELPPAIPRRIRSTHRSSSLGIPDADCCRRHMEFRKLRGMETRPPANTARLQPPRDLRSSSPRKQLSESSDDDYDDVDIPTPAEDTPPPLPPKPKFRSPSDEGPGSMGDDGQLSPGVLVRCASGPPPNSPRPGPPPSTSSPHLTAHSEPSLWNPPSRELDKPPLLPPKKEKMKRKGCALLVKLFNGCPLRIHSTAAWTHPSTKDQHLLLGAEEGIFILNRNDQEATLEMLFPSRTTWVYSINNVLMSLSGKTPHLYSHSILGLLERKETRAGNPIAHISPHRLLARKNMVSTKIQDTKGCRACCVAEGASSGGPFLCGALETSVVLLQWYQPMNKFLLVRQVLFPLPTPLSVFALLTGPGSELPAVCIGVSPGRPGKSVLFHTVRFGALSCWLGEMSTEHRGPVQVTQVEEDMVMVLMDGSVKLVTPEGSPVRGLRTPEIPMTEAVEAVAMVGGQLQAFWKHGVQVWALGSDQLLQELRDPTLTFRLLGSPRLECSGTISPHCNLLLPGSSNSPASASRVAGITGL
- protocol: HPK1 biochemical enzyme assay, microfluidic mobility shift assay (MSA)
- cond: mobility shift assay; 75 μM ATP; Morrison equation, tight-binding competitive inhibition; read-out: HPK1 Enzyme Assay_Ki
pKi: −log10 of the molar value.
measured.metric: pKi

>>> obs_value("CCn1cnnc1-c1cccc(N2Cc3c(cc(N(C)C)nc3CNC)C2=O)n1")
8.55
>>> obs_value("CNCc1nc(N2[C@H](C)C[C@@H]2C)cc2c1CN(c1cccc(-c3nncn3C(C)C)n1)C2=O")
9.21
>>> obs_value("CNCc1nc(C(C)(C)C)cc2c1CN(c1cccc(N3C(=O)OC[C@@H]3C)n1)C2=O")
8.74
>>> obs_value("CC[C@H](C)n1cnnc1-c1cccc(N2Cc3c(cc(N(C)C)nc3CNC)C2=O)n1")
9.77

---

- system.tested: human full-length recombinant HPK1 (Homo sapiens (Human))
- protocol: HPK1 biochemical enzyme assay, microfluidic mobility shift assay (MSA)
- cond: HPK1 mobility shift assay; read-out: HPK1 Enzyme Assay_Ki
- Experimental: HPK1 enzyme inhibition was measured using a microfluidic mobility shift assay (MSA). […] The reactions were conducted for 60 min at 37° C., stopped by the addition of 50 μL of 0.015 M EDTA, pH 8, and the extent of reactions (˜15-20% conversion with no inhibitor) was determined after electrophoretic separation of the fluorescently labeled peptide substrate and phosphorylated product on an LabChip EZ Reader II (PerkinElmer, Inc., Waltham, Mass.). […]
measured.metric: Ki (nM)

>>> obs_value("CCCn1cnnc1-c1cccc(N2Cc3c(cc(N(C)C(C)C)nc3CN)C2=O)n1")
0.12
>>> obs_value("CCn1cnnc1-c1cccc(N2Cc3c(cc(N(C)C(C)C)nc3CNC)C2=O)n1")
0.18
>>> obs_value("CNCc1nc(N(C)C)cc2c1CN(c1cccc(-c3nncn3[C@H](C)C(C)C)n1)C2=O")
0.37
>>> obs_value("CC[C@@H](C)n1cnnc1-c1cccc(N2Cc3c(cc(C4(C)CC4)nc3CNC)C2=O)n1")
0.46
>>> obs_value("CCN(CC)c1cc2c(c(CNC)n1)CN(c1cccc(-c3cnc(C)n3CC)n1)C2=O")
0.4
>>> obs_value("C[C@@H]1CC[C@@H](C)N1c1cc2c(c(CN)n1)CN(c1cccc(N3C(=O)OC[C@@H]3CF)n1)C2=O")
1.5
